experiment: Plasma pharmacokinetics (LC-MS/MS)
Type: in vivo, human
condition: human, plasma, oral, 100 mg, C1D1, 100 mg QD, n=2; read-out: T1/2, Median (Min, max) (converted)
quantity kind: half-life (h)
Express it in h; write the number only.

Measured half-life of CC1(N)CCN(c2cccnc2NC(=O)c2nc(-c3ncccc3C(F)(F)F)cnc2N)CC1 : 8.49

###

experiment: Plasma pharmacokinetics (LC-MS/MS)
Assay type: in vivo, human
condition: human, plasma, oral, 500 mg, C1D15, 500 mg QD, n=9; read-out: Tmax, Median (Min, max)
quantity kind: Tmax (h)
Express the result in h but write the number alone.

Entry under test: CC1(N)CCN(c2cccnc2NC(=O)c2nc(-c3ncccc3C(F)(F)F)cnc2N)CC1 [LXS196] . Its Tmax was 1.07
